test system: Ramos; experiment: Inhibition of […] in serum-starved human Ramos cells incubated for 1 hr followed by anti-human IgM F(ab)2 measured after 5 mins; assay type: functional, cell-based
pIC50: −log10 of the molar value.
property-name: pIC50

compound=c1nc(Nc2c[nH]nc2-c2nc3cc(OCCN4CCOCC4)ccc3[nH]2)c2cc[nH]c2n1 property_name=pIC50 measured_number=7.51

a. COc1cccc2[nH]c(-c3n[nH]cc3Nc3ncnc4[nH]ccc34)nc12
b. C[C@@H]1CN(c2ccc3[nH]c(-c4n[nH]cc4Nc4ncnc5[nH]ccc45)nc3c2)C[C@H](C)O1
c. COCCOc1ccc2[nH]c(-c3n[nH]cc3Nc3ncnc4[nH]ccc34)nc2c1
d. c1nc(Nc2c[nH]nc2-c2nc3cc(N4CCCCC4)ccc3[nH]2)c2cc[nH]c2n1
Could you please order the items by pIC50, going from the lowest number to the highest? Return value: ordered labels per request.
d, c, b, a
(d: 6.74, c: 7.10, b: 7.33, a: 7.53)
